System: RAW-Dual (murine macrophage reporter line)
procedure.summary: viability score (confluency relative to resting cells, overnight) (fraction); higher = more viable, active = viable (0.7 or more)
condition.label: modulator concentration 10 µM
Respond with a class label; see active, inactive

CN(C/C=C/C#CC(C)(C)C)Cc1cccc2ccccc12 :: active

Q. Test call for this compound, please: "COc1ccc2cc(CCC(C)=O)ccc2c1"
A. active

Q. Test call for this compound, please: "CCOc1cc([C@@H](CS(C)(=O)=O)N2C(=O)c3cccc(NC(C)=O)c3C2=O)ccc1OC"
A. active

Q. Test call for this compound, please: "O=C(NCC#CCN1CCc2ccccc2C1)c1cccc(Br)c1"
A. active

Q. Test call for this compound, please: "N[C@@H](Cc1cc(I)c(Oc2cc(I)c(O)c(I)c2)c(I)c1)C(=O)O"
A. active

Q. Test call for this compound, please: CN1CCOC(c2ccccc2)c2ccccc2C1.Cl (stereo not drawn)
A. active

Q. Test call for this compound, please: "Cc1oncc1C(=O)NCCn1nc(C(F)(F)F)cc1C1CC1"
A. active

Q. Test call for this compound, please: "Oc1ccc(N=Cc2ccccc2)cc1"
A. active

Q. Test call for this compound, please: "CNCCCN1c2ccccc2CCc2ccccc21.Cl"
A. active

Q. Test call for this compound, please: "CC1(C)COC(=O)C1=NNc1ccc([N+](=O)[O-])cc1"
A. active

Q. Test call for this compound, please: "O=C(c1ccc(F)c(F)c1Nc1ccc(I)cc1F)N1CC(O)([C@@H]2CCCCN2)C1"
A. inactive

Q. Test call for this compound, please: O=C(Nc1nccs1)c1ccc2c(c1)C(=O)N(CC1CCCO1)C2=O (stereo not drawn)
A. active

Q. Test call for this compound, please: "O=C(NC1CCN(CCCCC2(C(=O)NCC(F)(F)F)c3ccccc3-c3ccccc32)CC1)c1ccccc1-c1ccc(C(F)(F)F)cc1"
A. active

* * *

Test system: RAW-Dual (murine macrophage reporter line)
procedure.summary: NF-kB reporter (SEAP) activity fold change vs agonist alone; higher = enhanced NF-kB activity
condition.label: modulator concentration 10 µM; agonist: LPS 0.1 ug/mL
Decision: NF-kB reporter compared against 1; not below it gives yes (1), below it gives no (0).

// below: answered molecules
O=C(Nc1ccc([N+](=O)[O-])cc1)Nc1ccc(Cl)cn1 :: no (0)
C#CC1(O)CCC2C3CCC4=Cc5oncc5CC4(C)C3CCC21C (stereo not given) :: yes (1)
CS(=O)(=O)c1ccc(C2=C(c3ccccc3)C(=O)OC2)cc1 :: yes (1)
Cc1cc(C)n(-c2ccc(=O)n(CCNS(=O)(=O)c3ccccc3F)n2)n1 :: yes (1)
Cc1ccc(N2C(=O)C(=CC3CC=CCC3)SC2=S)cc1 (stereo not given) :: no (0)
CCC(C(=O)N1CCC2(CC1)CC2(F)F)c1ccccc1 (stereo not given) :: yes (1)
Cc1cc(C)n(CCNc2nc3ccccc3s2)n1 :: yes (1)
O=C1c2ccccc2C(=O)C1c1ccncc1 :: yes (1)

Q. Does the molecule "CCC(=O)Nc1ccc(S(=O)(=O)NCC2CCN(c3ncc(F)cn3)CC2)c(C)c1" have recorded NF-kB reporter that is 1 or more?
A. yes (1)

Q. Does the molecule "CCC(=O)Nc1ccc(C(=O)NN=Cc2ccc(C#N)cc2)cc1" have recorded NF-kB reporter that is 1 or more?
A. yes (1)

Q. Does the molecule COCCOC(=O)C1=C(C)NC(C)=C(C(=O)OC/C=C/c2ccccc2)C1c1cccc([N+](=O)[O-])c1 (stereo not given) have recorded NF-kB reporter that is 1 or more?
A. no (0)

Q. Does the molecule C=CCN1CCCC1CNC(=O)c1cc2nn[nH]c2cc1OC.Cl (stereo not given) have recorded NF-kB reporter that is 1 or more?
A. yes (1)

Q. Does the molecule "Cc1ccc2[nH]c3nc(NN)nnc3c2c1" have recorded NF-kB reporter that is 1 or more?
A. no (0)

Q. Does the molecule "COC(=O)c1ccc(CSc2ccc3nnc(-c4cccc(F)c4)n3n2)o1" have recorded NF-kB reporter that is 1 or more?
A. yes (1)

Q. Does the molecule "N#CC[C@@H](C1CCCC1)n1cc(-c2ncnc3[nH]ccc23)cn1" have recorded NF-kB reporter that is 1 or more?
A. no (0)

Q. Does the molecule Cc1cc(OC2CCN(S(=O)(=O)CCc3ccccc3)C2)cc(=O)n1C (stereo not given) have recorded NF-kB reporter that is 1 or more?
A. no (0)

Q. Does the molecule "O=C(NC1CCCCCC1)c1ccc([N+](=O)[O-])cc1Cl" have recorded NF-kB reporter that is 1 or more?
A. no (0)

Q. Does the molecule C=C1C(=O)OC2CC3(C)CCCC(C)C3=CC12 (stereo not given) have recorded NF-kB reporter that is 1 or more?
A. no (0)

Q. Does the molecule "COC(=O)c1ccc(N2C(=O)c3ccc(Oc4cccc([N+](=O)[O-])c4)cc3C2=O)cc1" have recorded NF-kB reporter that is 1 or more?
A. no (0)

Q. Does the molecule "CN1CCN(C(c2ccccc2)c2ccccc2)CC1.Cl.Cl" have recorded NF-kB reporter that is 1 or more?
A. no (0)

Q. Does the molecule "COc1ccc(Nc2nc(Nc3ccc4ncccc4c3)nc(N3CCOCC3)n2)cc1" have recorded NF-kB reporter that is 1 or more?
A. yes (1)

Q. Does the molecule CCOC(=O)OC(C)OC1=C(C(=O)Nc2ccccn2)N(C)S(=O)(=O)c2ccccc21 (stereo not given) have recorded NF-kB reporter that is 1 or more?
A. yes (1)

Q. Does the molecule "CN(C)C(=O)COC(=O)Cc1ccc(OC(=O)c2ccc(NC(=N)N)cc2)cc1.CS(=O)(=O)O" have recorded NF-kB reporter that is 1 or more?
A. no (0)

Q. Does the molecule "CC(C)NC[C@H](O)COc1ccc(CCOCC2CC2)cc1.Cl" have recorded NF-kB reporter that is 1 or more?
A. yes (1)

Q. Does the molecule C=C(C)CSC1=C(C#N)C(c2ccccc2)CC(=O)N1 (stereo not given) have recorded NF-kB reporter that is 1 or more?
A. no (0)

Q. Does the molecule "COc1ccc(NC(=O)Cc2cn(Cc3ccccc3)c3ccccc23)cc1OC" have recorded NF-kB reporter that is 1 or more?
A. yes (1)
